assay: Pre-emergence effect on weeds; type: in vivo, Sinapis arvensis; conditions: dosage 1000 g of a.i./ha, scored visually after 3 to 4 weeks
METRIC: Herbicidal effect SINAL

Item: `Cc1cc(Oc2cc(C(F)(F)F)nn2C)nc(CNC(=O)C2CC2)n1` | Herbicidal effect SINAL: 100%

Item: `CCc1cc(Oc2csc(C(F)(F)F)c2)nc(CNC(=O)C2CC2)n1` | Herbicidal effect SINAL: 100%

Item: `Cc1cc(Oc2csc(C(F)(F)F)c2)nc(CNC(=O)C2CC2)n1` | Herbicidal effect SINAL: 90%

Item: `CCc1cc(Oc2cc(C(F)(F)F)nn2C)nc(CNC(=O)C(F)(F)F)n1` | Herbicidal effect SINAL: 100%

Item: `CCc1cc(Oc2ccnc(C(F)(F)F)c2)nc(CNC(=O)C2CC2)n1` | Herbicidal effect SINAL: 100%

====

Give measured Herbicidal effect AMARE for each item. Keep answers brief.
Test system: Amaranthus retroflexus
Experiment: Pre-emergence effect on weeds
Assay type: in vivo
Settings: dosage 1000 g of a.i./ha, scored visually after 3 to 4 weeks
From the text: 1. Pre-Emergence Effect on Weeds Seeds of monocotyledonous and dicotyledonous weed plants are placed into sandy loam soil in cardboard pots and covered with soil. […] After the test plants have emerged, the damage to the plants or the negative effect on the emergence was scored visually after a test period of 3 to 4 weeks by comparison with untreated controls. […]
Hi! Could you send only the number? It should be in %, unit omitted.

Item: `Cc1cc(Oc2cccc(C(F)(F)F)c2)nc(CNC(=O)C2CC2)n1` | Herbicidal effect AMARE: 100

Item: `Cc1cc(Oc2cccc(C(F)(F)F)c2)nc(CNC(=O)C2CCC2)n1` | Herbicidal effect AMARE: 100

Item: `CCc1cc(Oc2csc(C(F)(F)F)c2)nc(CNC(=O)C2CC2)n1` | Herbicidal effect AMARE: 100

Item: `CCc1cc(Oc2ccnc(C(F)(F)F)c2)nc(CNC(=O)C2CC2)n1` | Herbicidal effect AMARE: 100

Item: `Cc1cc(Oc2csc(C(F)(F)F)c2)nc(CNC(=O)C2CC2)n1` | Herbicidal effect AMARE: 100

The measurements presented in this section are drawn from patent US20060223708A1.
